System: SNB-19
test: NCI tumour cell line growth inhibition, 48 h
The source made the active and inactive calls. No stated cut-off is given here; in the data, active = GI50 up to about 1.1 µM and inactive = higher.
Answer with one of the outcomes given here: 1.0 for active, 0.0 for inactive

QUERY: Field: outcome | Entry: `c1ccc2c(c1)nc1n2CCCn2ccnc2-1`
RESULT: 0.0

QUERY: What call does the record list for COC1(OC)N=C(N)C2(C#N)C3(C(=O)N(C(C)C)N=C3C)C12C#N (stereo not drawn) ?
RESULT: 0.0

QUERY: What outcome does the record of this test show for N#CC(C(=O)/C(=N\Nc1nc(S)nn1N)C(C#N)c1ccc(Cl)cc1)c1ccc(Cl)cc1 (stereo not drawn) ?
RESULT: 0.0

QUERY: Hi, sorry to bother you, what did the test record for O=C(NN1C(=O)C(Cl)C1c1ccc([N+](=O)[O-])cc1)c1ccccc1O (stereo not drawn) ?
RESULT: 0.0

QUERY: How was `CC(=O)O[C@H]1C(=O)[C@@]2(C)[C@H]([C@H](OC(=O)c3cccc(C(F)(F)F)c3)[C@]3(O)C[C@H](OC(=O)[C@H](O)[C@@H](NC(=O)c4ccccc4)c4ccccc4)C(C)=C1C3(C)C)[C@]1(OC(C)=O)CO[C@@H]1C[C@@H]2O` classified in this test?
RESULT: 1.0

QUERY: So what was the verdict on O=C1NC(=O)C2C(=O)NC(=O)C1C2(c1ccccc1)c1cc[nH]c1 (stereo not drawn) in this test?
RESULT: 0.0

QUERY: In this assay, the call recorded for `COc1ccc2nc3cc(Cl)ccc3c(NCCCCCC(=O)NC(COc3cnc4c(ccc5cccnc54)c3)COc3cnc4c(ccc5cccnc54)c3)c2c1` was what?
RESULT: 0.0

QUERY: Outcome logged for `COc1cccc2[s+]snc12` in this assay:
RESULT: 0.0

----------
System: HL-60
test: NCI tumour cell line growth inhibition, 48 h
Calls of active or inactive are those of the source. Cut-off read from the data, not from the text of the source: active = GI50 up to about 1.1 µM and inactive = higher.
Tick one outcome: YES (active), NO (inactive)

QUERY: Which outcome was assigned to CN(Cc1cnc2nc(N)nc(N)c2n1)c1ccc(C(=O)NC(CCC(=O)O)C(=O)O)c2ccccc12 (centres undefined) in this test?
RESULT: YES

QUERY: Status in this test for O=C1c2cc3ccccc3cc2C2(c3ccc(Cl)cc3)NCCN12 (centres undefined) ?
RESULT: NO

QUERY: Recorded call for CSc1nc(NC2OC(COC(C)=O)C(OC(C)=O)C(OC(C)=O)C2OC(C)=O)c(/N=C\C=N/c2c(NC3OC(COC(C)=O)C(OC(C)=O)C(OC(C)=O)C3OC(C)=O)nc(SC)n(C)c2=O)c(=O)n1C (centres undefined) ?
RESULT: NO

QUERY: Just curious, what result did COc1ccc(N2C(=O)C3c4[nH]c5ccc(OCc6ccccc6)cc5c4C4CCC(c5ccccc5)CC4C3C2=O)cc1 (centres undefined) get here?
RESULT: YES

----------
Test system: NCI-H522
test: NCI tumour cell line growth inhibition, 48 h
Active and inactive are the calls of the source. No stated cut-off is given here; in the data, active = GI50 up to about 1.1 µM and inactive = higher.
Result category, one only: True for active, False for inactive

QUERY: Can you look up the reported call for `Cc1cnc2sn(-c3ccc([N+](=O)[O-])cc3)c(=O)c2c1` for me?
RESULT: False

QUERY: Can you look up the reported call for CC(C)Cc1ccc(C(C)/C=C2\CCC(CN3CCCCC3)C2=O)cc1 (stereo not drawn) for me?
RESULT: False

QUERY: Name the outcome recorded for O=C(/C=C/c1ccccc1)CC1OC(=O)c2ccccc21 (stereo not drawn) in the assay.
RESULT: False

QUERY: Tell me the recorded outcome of this test for `COc1ccc2c3c(c4cc(OC)c(OC)cc4c2c1)CN1CCC[C@H]1[C@@H]3O` .
RESULT: True

QUERY: Which result was noted for this compound in the test: COc1cc2c(cc1OC)C1=Cc3ccc(OC)c(OC)c3C(C#N)N1CC2 (stereo not drawn)
RESULT: False

QUERY: Per the records of this test, what outcome belongs to C[C@H]1CC[C@@]2(OC1)O[C@H]1C[C@H]3[C@@H]4CC[C@@H]5C[C@@H](OC6OC(CO)C(O)C(O)C6OC6OC(CO)C(O)C(O)C6O)CC[C@]5(C)[C@H]4CC[C@]3(C)[C@H]1[C@@H]2C (stereo partly drawn) ?
RESULT: False

QUERY: Any idea what this test logged for `COc1cc([C@H]2c3cc(O)c(OC)cc3C[C@]3(O)[C@@H]2CO[C@@H]3O)ccc1O` ?
RESULT: False

QUERY: Query: recorded result category for `C=C1Cc2cc(OC)c(OC)c(OC)c2-c2ccc(SC)c(=O)cc21` in this test
RESULT: True

Values compiled from ChEMBL document CHEMBL1201862.
